Source of measurements: PubChem BioAssay (NCATS)

- Target System: Cellular tumor antigen p53 (Homo sapiens) (UniProt P04637)
- Sequence (P04637 whole entry, looked up): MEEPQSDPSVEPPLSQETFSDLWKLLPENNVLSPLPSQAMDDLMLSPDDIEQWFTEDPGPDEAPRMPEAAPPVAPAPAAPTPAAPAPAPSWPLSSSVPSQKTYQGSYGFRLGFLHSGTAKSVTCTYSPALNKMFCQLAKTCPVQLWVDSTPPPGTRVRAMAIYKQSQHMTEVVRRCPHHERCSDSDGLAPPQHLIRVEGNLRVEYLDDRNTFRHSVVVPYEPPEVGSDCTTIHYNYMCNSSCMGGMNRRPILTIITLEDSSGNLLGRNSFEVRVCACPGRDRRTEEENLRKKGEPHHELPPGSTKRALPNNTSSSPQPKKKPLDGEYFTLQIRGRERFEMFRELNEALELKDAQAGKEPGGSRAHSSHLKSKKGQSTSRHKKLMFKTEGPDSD
- Method: Primary qHTS for small molecule compounds that upregulate eGFP-tagged delta133p53alpha (in N-terminal) cells. (AID 2060322);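 further: cells pre-induced with doxycycline then dosed without doxycycline; series mostly up to about 56 µM; 0% = DMSO vehicle and 100% = reference activator; nearly all actives have a fitted effect of over 75% in size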
- Condition Notes: NCI-H358 eGFP-delta133p53alpha fluorescence, 24 h; active compounds read high
Results filed as inconclusive are left out.
Kindly supply the reported activation values for the records listed here.
# unit: % | format: bare number

Give recorded activation with Cellular tumor antigen p53 (Homo sapiens) (UniProt P04637) for the following compound: "CCC(=O)N1CCN(C(=O)c2ccccc2)CC1"
-16

Note, next up: CC1CC2(O)OC(=O)C3=C2C(CCC3)[C@@]12C[C@@H](c1ccoc1)OC2=O (stereo not given in full)
-12.2

Now consider CC1(C)CCCC2(C)c3c4c(c(=O)oc(=O)c3=CCC12)=CCC1C(C)(C)CCCC41C (stereo not given) and answer again.
-8.04

Query "Cc1[nH]cnc1C1CCN(c2nc3cccc4c3n2CCC4=O)CC1" next
1.43

Follow-up entry: "COc1cc(/C=C/C(=O)O[C@@H]2C[C@@](O)(C(=O)O)C[C@@H](O)[C@@H]2O)ccc1O"
-1.53

What would you report for "C=CC(=O)N1CCN(C(=O)CNc2cc(-c3ccccc3Cl)c(Cl)cc2OC)CC1" ?
8.59

And what about the compound "CC1(C)C(=O)C(C)(C)c2cc(C(=O)Nc3ccc(C(=O)O)cc3)ccc21" ?
-2.39

Same question for COC(=O)CC(O)C1OC(c2ccccc2)C(O)C1O (stereo not given) please.
-2.29

# repeat for "CC[C@@H](Nc1c(Nc2cccc(C(=O)N(C)C)c2O)c(=O)c1=O)c1ccc(C)o1"
-1.43

Query "N.N.N.N.N.N.N.N.N.N.N.N.N.N.O.O.[Ru+4].[Ru+5].[Ru+5]" next
4.58
